Every entry's value here was drawn from patent US8592454B2.

The reader will find IC50 measurements below, all made with UniProt P25103.
RECORDED ENDPOINT: IC50 (pM)

P. CC(=O)N1CCC(C(=O)N2C[C@@H](N(C)C(=O)N(C)c3cc(C(F)(F)F)cc(C(F)(F)F)c3)[C@H](c3ccc(Cl)c(Cl)c3)C2)CC1 (racemic) [Example 66]
Q. CC(=O)N1CCC(C(=O)N2CC[C@@H](N(C)C(=O)Nc3ccc(Cl)cc3)[C@H](c3ccc(Cl)c(Cl)c3)C2)CC1 [Example 61]
R. CC(=O)N1CCC(C(=O)N2C[C@@H](N(C)C(=O)N(C)c3cc(C(F)(F)F)cc(C(F)(F)F)c3)[C@H](c3ccc(F)cc3)C2)CC1 [Example 71b]
Arrange these compounds by their IC50, starting with the largest number. Response format: the labels, sorted as the prompt asks.
Q, P, R

---

Target: Human NK2 (hNK2) receptor (Homo sapiens (Human), UniProt P21452)
Sequence (P21452 whole entry): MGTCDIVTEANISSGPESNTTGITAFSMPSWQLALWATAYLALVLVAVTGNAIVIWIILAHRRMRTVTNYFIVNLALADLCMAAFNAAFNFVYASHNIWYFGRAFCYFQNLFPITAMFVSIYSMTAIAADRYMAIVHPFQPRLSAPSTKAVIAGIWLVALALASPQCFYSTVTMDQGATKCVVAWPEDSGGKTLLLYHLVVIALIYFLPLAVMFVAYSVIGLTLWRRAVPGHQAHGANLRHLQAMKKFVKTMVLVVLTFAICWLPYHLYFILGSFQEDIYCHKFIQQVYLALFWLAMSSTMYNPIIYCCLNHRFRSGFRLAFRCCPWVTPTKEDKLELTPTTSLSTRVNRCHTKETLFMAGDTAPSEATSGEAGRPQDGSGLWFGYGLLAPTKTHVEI
Counter-ions that a name gives are not always drawn.
RECORDED ENDPOINT: IC50 (µM)

Here is how some compounds turned out for IC50.
COMPOUND: CN(C(=O)N(C)[C@@H]1CCN(C2CCS(=O)(=O)CC2)C[C@H]1c1ccc(F)cc1)c1cc(C(F)(F)F)cc(C(F)(F)F)c1 [Example 104, monohydrochloride]
IC50 [µM]: 0.1
//
COMPOUND: CN(C(=O)N(C)[C@@H]1CN(C(=O)NC2CCOCC2)C[C@H]1c1ccc(F)cc1)c1cc(C(F)(F)F)cc(C(F)(F)F)c1
IC50 [µM]: 0.059

I. CN(C(=O)N(C)[C@@H]1CN(C(=O)N2CCN(S(C)(=O)=O)CC2)C[C@H]1c1ccc(F)cc1)c1cc(Cl)cc(Cl)c1
II. CC(=O)N1CCC(C(=O)N2C[C@@H](N(C)C(=O)N(C)c3cc(C(F)(F)F)cc(C(F)(F)F)c3)[C@H](c3ccc(Cl)c(Cl)c3)C2)CC1 (racemic)
III. CC(=O)N1CCC(C(=O)N2C[C@@H](N(C)C(=O)N(C)c3cc(C(F)(F)F)cc(C(F)(F)F)c3)[C@H](c3ccc(F)cc3)C2)CC1 [Example 71b]
IV. CC(=O)N1CCC(C(=O)N2C[C@@H](N(C)C(=O)N(C)c3cc(C(F)(F)F)cc(C(F)(F)F)c3)[C@H](c3ccc(F)cn3)C2)CC1
# sort list by recorded IC50, greatest to least Response format: the labels, sorted as the prompt asks.
IV, I, III, II
(IV: 0.12 µM, I: 0.077 µM, III: 0.0071 µM, II: 0.002 µM)

---

Target: Human NK1 Receptor (Homo sapiens (Human))
Sequence (P25103 whole entry): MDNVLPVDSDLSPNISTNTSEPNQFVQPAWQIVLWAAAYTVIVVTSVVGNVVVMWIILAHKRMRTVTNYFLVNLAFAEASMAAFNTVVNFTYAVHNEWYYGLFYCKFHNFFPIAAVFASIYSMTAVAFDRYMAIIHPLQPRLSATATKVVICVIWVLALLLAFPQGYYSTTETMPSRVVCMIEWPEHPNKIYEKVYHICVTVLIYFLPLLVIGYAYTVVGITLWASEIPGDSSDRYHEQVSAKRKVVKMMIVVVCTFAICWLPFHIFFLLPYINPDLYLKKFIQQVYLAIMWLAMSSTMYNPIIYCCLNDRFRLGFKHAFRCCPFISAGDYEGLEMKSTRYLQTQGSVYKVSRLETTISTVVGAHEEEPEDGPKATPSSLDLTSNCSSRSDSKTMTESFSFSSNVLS
pIC50: −log10 of the molar value. Counter-ions that a name gives are not always drawn.
RECORDED ENDPOINT: pIC50

Here is how some compounds turned out for pIC50.
COMPOUND: CN(C(=O)N(C)[C@@H]1CCN(C2CCS(=O)(=O)CC2)C[C@H]1c1ccc(F)cc1)c1cc(C(F)(F)F)cc(C(F)(F)F)c1 [Example 104, monohydrochloride]
pIC50: 10.14
//
COMPOUND: CN(C(=O)N(C)[C@@H]1CN(C(=O)C2CCN(C(=O)C(C)(C)O)CC2)C[C@H]1c1ccc(F)cc1)c1cc(C(F)(F)F)cc(C(F)(F)F)c1 [Example 308]
pIC50: 10.15
//
COMPOUND: CC(=O)N1CCC(C(=O)N2CC[C@@H](N(C)C(=O)N(C)c3cc(C(F)(F)F)cc(C(F)(F)F)c3)[C@H](c3ccc(Cl)c(Cl)c3)C2)CC1 [Example 25]
pIC50: 10.51
//
COMPOUND: COC(=O)N[C@H]1CC[C@H](C(=O)N2C[C@@H](N(C)C(=O)N(C)c3cc(C(F)(F)F)cc(C(F)(F)F)c3)[C@H](c3ccc(F)cc3)C2)CC1 [Example 233]
pIC50: 10.31

P. CC(=O)N1CCC(C(=O)N2C[C@@H](N(C)C(=O)N(C)c3cc(Cl)cc(Cl)c3)[C@H](c3ccc(F)cc3)C2)CC1 [Example 176]
Q. CC(=O)N1CCC(C(=O)N2CC[C@@H](N(C)C(=O)N(C)c3cc(C(F)(F)F)cc(C(F)(F)F)c3)[C@H](c3ccc(F)cc3)C2)CC1 (relative stereo) [Example 4]
Quick check, higher pIC50 between P and Q ? When you have decided, please share the label of that item.
P
(P: 10.54, Q: 9.96)
